System: full-length hepatitis C viral protein NS3•4A (Hepatitis C virus genotype 1a)
Construct: hexa-histidine (N); made in house; host or cells: Sf9 insect cells (baculovirus, pVL1392)
Assay Notes: biochemical
Design: species or system HCV sub-type strain 1a
Details: Enzyme Assay 2 (HCV NS3 Peptide Cleavage Assay) activity, apparent Ki class

[
  {
    "Compound": "CCC[C@H](NC(=O)[C@@H]1C[C@]2(CC(c3cccc(Cl)c3)=NO2)CN1C(=O)[C@@H](NC(=O)CC(C)(C)OC)C(C)(C)C)C(=O)C(=O)NC1CC1",
    "System": "full-length hepatitis C viral protein NS3•4A (Hepatitis C virus genotype 1a)",
    "Ki": "< 100 nM"
  },
  {
    "Compound": "CCCNC(=O)C(=O)[C@H](CCC)NC(=O)[C@@H]1C[C@]2(CC(c3cccc(Cl)c3)=NO2)CN1C(=O)[C@@H](NC(=O)CC1CCCCC1)C(C)(C)C",
    "System": "full-length hepatitis C viral protein NS3•4A (Hepatitis C virus genotype 1a)",
    "Ki": "100 to 500 nM"
  },
  {
    "Compound": "CCC[C@H](NC(=O)[C@@H]1C[C@]2(CC(c3cccc(Cl)c3)=NO2)CN1C(=O)[C@@H](NS(=O)(=O)c1ccc(Cl)cc1)C(C)CC)C(=O)C(=O)NC1CC1 (stereo partly drawn)",
    "System": "full-length hepatitis C viral protein NS3•4A (Hepatitis C virus genotype 1a)",
    "Ki": "100 to 500 nM"
  }
]

* * *

System: HCV NS3 protease domain (Hepatitis C virus genotype 1b, UniProt Q9WMX2)
Construct: The first 181 amino acids of NS3 (residues 1027-1207 of the viral polyprotein); hexa-histidine (C); made in house; host or cells: E. coli BL21/DE3 pLysS
Assay Notes: biochemical
Details: Enzyme Assay 1 (HCV NS3 Protease Domain Peptide Cleavage Assay) activity, apparent Ki class
pKi: −log10 of the molar value.
Readings of pKi for the listed compounds

[
  {
    "Compound": "CCCC1=NO[C@]2(C1)C[C@@H](C(=O)N[C@@H](CCC)C(=O)C(=O)NC1CC1)N(C(=O)[C@@H](NC(=O)OCc1ccccc1)C(C)(C)C)C2",
    "pKi": "< 6.30"
  },
  {
    "Compound": "CCC[C@H](NC(=O)[C@@H]1C[C@]2(CC(c3cccc(Cl)c3)=NO2)CN1C(=O)[C@@H](NC(=O)CC1CC(=O)c2ccc(OC)cc21)C(C)(C)C)C(=O)C(=O)NC1CC1 (some centres unmarked)",
    "pKi": "6.30 to 7.00"
  },
  {
    "Compound": "CCC[C@H](NC(=O)[C@@H]1C[C@]2(CC(c3cccc(Cl)c3)=NO2)CN1C(=O)[C@@H](NC(=O)CCn1ccnc1C)C(C)(C)C)C(=O)C(=O)NC1CC1",
    "pKi": "6.30 to 7.00"
  },
  {
    "Compound": "CCC[C@H](NC(=O)[C@@H]1C[C@]2(CC(c3ccc(OC)c(C)c3)=NO2)CN1C(=O)[C@@H](NC(=O)CC1CCCCC1)C(C)(C)C)C(=O)C(=O)NC1CC1",
    "pKi": "6.30 to 7.00"
  },
  {
    "Compound": "CCC[C@H](NC(=O)[C@@H]1C[C@]2(CC(c3cccc(Cl)c3)=NO2)CN1C(=O)[C@@H](NC(=O)CC1CCCCC1)C(C)(C)C)C(=O)C(=O)NC(C)C",
    "pKi": "6.30 to 7.00"
  }
]

* * *

System: full-length hepatitis C viral protein NS3•4A (Hepatitis C virus genotype 1a)
Construct: hexa-histidine (N); made in house; host or cells: Sf9 insect cells (baculovirus, pVL1392)
Assay Notes: biochemical
Set-up: species or system HCV sub-type strain 1a
Details: Enzyme Assay 2 (HCV NS3 Peptide Cleavage Assay) activity, apparent Ki class
Readings of Ki for the listed molecules

[
  {
    "Molecule": "CC(C)(C)[C@H](NC(=O)CC1CCCCC1)C(=O)N1C[C@@]2(CC(c3cccc4cccnc34)=NO2)C[C@H]1C(=O)N[C@@H](CC1CC1)C(=O)C(N)=O [Compound 603]",
    "Ki": "< 100 nM"
  },
  {
    "Molecule": "CCC[C@H](NC(=O)[C@@H]1C[C@]2(CC(c3ccc(F)c(Cl)c3)=NO2)CN1C(=O)[C@@H](NC(=O)CC(C)(C)C)C(C)(C)C)C(=O)C(=O)NC1CC1 [Compound 613]",
    "Ki": "< 100 nM"
  },
  {
    "Molecule": "CC1(CC(=O)N[C@H](C(=O)N2C[C@@]3(CC(c4cccc(Cl)c4)=NO3)C[C@H]2C(=O)N[C@@H](CC2CC2)C(=O)C(N)=O)C(C)(C)C)CCOCC1 [Compound 184]",
    "Ki": "< 100 nM"
  },
  {
    "Molecule": "CCC[C@H](NC(=O)[C@@H]1C[C@]2(CC(c3ccc(F)c(Cl)c3)=NO2)CN1C(=O)[C@@H](NC(=O)OC1CCCC1)C(C)(C)C)C(=O)C(=O)NC [Compound 653]",
    "Ki": "100 to 500 nM"
  },
  {
    "Molecule": "CCC[C@H](NC(=O)[C@@H]1C[C@]2(CC(c3cccc(Cl)c3)=NO2)CN1C(=O)[C@@H](NC(=O)CC1CCCCC1)C(C)(C)C)C(=O)C(=O)NCc1ccc(-n2cccn2)cc1 [Compound 73]",
    "Ki": "100 to 500 nM"
  }
]

* * *

System: full-length hepatitis C viral protein NS3•4A (Hepatitis C virus genotype 1a)
Construct: hexa-histidine (N); made in house; host or cells: Sf9 insect cells (baculovirus, pVL1392)
Assay Notes: biochemical
Design: species or system HCV sub-type strain 1a
Details: Enzyme Assay 2 (HCV NS3 Peptide Cleavage Assay) activity, apparent Ki class
pKi: −log10 of the molar value.

[
  {
    "Molecule": "CCC[C@H](NC(=O)[C@@H]1C[C@]2(CC(c3cc(Cl)cc(OC)c3)=NO2)CN1C(=O)[C@@H](NC(=O)CC1CCCCC1)C(C)(C)C)C(=O)C(=O)NC1CC1 [Compound 250]",
    "System": "full-length hepatitis C viral protein NS3•4A (Hepatitis C virus genotype 1a)",
    "pKi": "> 7.00"
  },
  {
    "Molecule": "CCC[C@H](NC(=O)[C@@H]1C[C@]2(CC(C(=O)c3ccccc3)=NO2)CN1C(=O)[C@@H](NC(=O)NC(C)(C)C)C(C)(C)C)C(=O)C(=O)NC1CC1 [Compound 119]",
    "System": "full-length hepatitis C viral protein NS3•4A (Hepatitis C virus genotype 1a)",
    "pKi": "6.30 to 7.00"
  },
  {
    "Molecule": "CCC[C@H](NC(=O)[C@@H]1C[C@]2(CC(c3cccc(Cl)c3)=NO2)CN1C(=O)[C@@H](NC(=O)CC1CCCCC1)C(C)(C)C)C(=O)C(=O)NCC(C)C [Compound 143]",
    "System": "full-length hepatitis C viral protein NS3•4A (Hepatitis C virus genotype 1a)",
    "pKi": "6.30 to 7.00"
  },
  {
    "Molecule": "COc1cc(OC)c(C2=NO[C@]3(C2)C[C@@H](C(=O)N[C@@H](CC2CC2)C(=O)C(=O)NC2CC2)N(C(=O)[C@@H](NC(=O)OC(C)(C)C)C(C)(C)C)C3)cc1Cl [Compound 745]",
    "System": "full-length hepatitis C viral protein NS3•4A (Hepatitis C virus genotype 1a)",
    "pKi": "> 7.00"
  },
  {
    "Molecule": "CCC[C@H](NC(=O)[C@@H]1C[C@]2(CC(c3cccc(Cl)c3)=NO2)CN1C(=O)[C@@H](NC(C)=O)C(C)(C)C)C(=O)C(=O)NC1CC1 [Compound 12]",
    "System": "full-length hepatitis C viral protein NS3•4A (Hepatitis C virus genotype 1a)",
    "pKi": "> 7.00"
  },
  {
    "Molecule": "CCC[C@H](NC(=O)[C@@H]1C[C@]2(CC(c3ccc(F)c(Cl)c3)=NO2)CN1C(=O)[C@@H](NC(=O)OC1CCCC1)C(C)(C)C)C(=O)C(N)=O [Compound 654]",
    "System": "full-length hepatitis C viral protein NS3•4A (Hepatitis C virus genotype 1a)",
    "pKi": "> 7.00"
  }
]

* * *

Readings of Ki for the listed compounds
System: HCV NS3 protease domain (Hepatitis C virus genotype 1b, UniProt Q9WMX2)
Construct: The first 181 amino acids of NS3 (residues 1027-1207 of the viral polyprotein); hexa-histidine (C); made in house; host or cells: E. coli BL21/DE3 pLysS
Assay Notes: biochemical
Details: Enzyme Assay 1 (HCV NS3 Protease Domain Peptide Cleavage Assay) activity, apparent Ki class

[
  {
    "Compound": "CCC[C@H](NC(=O)[C@@H]1C[C@]2(CC(c3cccc(Cl)c3)=NO2)CN1C(=O)[C@@H](NC(=O)N(C)CC)C(C)(C)C)C(=O)C(=O)NC1CC1 [Compound 432]",
    "Ki": "> 500 nM"
  },
  {
    "Compound": "CCC[C@H](NC(=O)[C@@H]1C[C@]2(CC(c3cccc(Cl)c3)=NO2)CN1C(=O)[C@@H](NC(=O)CC(C)C)C(C)(C)C)C(=O)C(=O)NC1CC1 [Compound 532]",
    "Ki": "> 500 nM"
  },
  {
    "Compound": "CCC[C@H](NC(=O)[C@@H]1C[C@]2(CC(c3cccc(Cl)c3)=NO2)CN1C(=O)CCN(c1ccccc1)S(=O)(=O)c1ccccc1)C(=O)C(=O)NC1CC1 [Compound 483]",
    "Ki": "> 500 nM"
  },
  {
    "Compound": "CCC[C@H](NC(=O)[C@@H]1C[C@]2(CC(c3cccc(Cl)c3)=NO2)CN1C(=O)[C@@H](NC(=O)[C@](C)(O)c1ccccc1)C(C)(C)C)C(=O)C(=O)NC1CC1 [Compound 139]",
    "Ki": "> 500 nM"
  },
  {
    "Compound": "CCC[C@H](NC(=O)[C@@H]1C[C@]2(CC(c3cccc(Cl)c3)=NO2)CN1C(=O)[C@@H](NC(=O)C1CCOCC1)C(C)(C)C)C(=O)C(=O)NC1CC1 [Compound 523]",
    "Ki": "100 to 500 nM"
  },
  {
    "Compound": "CCC[C@H](NC(=O)[C@@H]1C[C@]2(CC(c3cccc(Cl)c3)=NO2)CN1C(=O)[C@@H](NC(=O)CC1CCCCC1)C(C)(C)C)C(=O)C(=O)NC1CCCCC1 [Compound 99]",
    "Ki": "> 500 nM"
  },
  {
    "Compound": "CCC[C@H](NC(=O)[C@@H]1C[C@]2(CC(c3cccc(Cl)c3)=NO2)CN1C(=O)[C@@H](NC(=O)OCc1ccccc1Cl)C(C)(C)C)C(=O)C(=O)NC1CC1 [Compound 39]",
    "Ki": "100 to 500 nM"
  },
  {
    "Compound": "CCC[C@H](NC(=O)[C@@H]1C[C@]2(CC(c3ccc(C)cc3)=NO2)CN1C(=O)[C@@H](NC(=O)O[C@H]1CCOC1)C(C)(C)C)C(=O)C(=O)NC1CC1 [Compound 385]",
    "Ki": "> 500 nM"
  }
]
